Attribution: patent US20200308170A1

- study.system: KRas G12C (Homo sapiens, UniProt P01116, G12C)
- Sequence (P01116 1-188 isoform P01116-2 G12C): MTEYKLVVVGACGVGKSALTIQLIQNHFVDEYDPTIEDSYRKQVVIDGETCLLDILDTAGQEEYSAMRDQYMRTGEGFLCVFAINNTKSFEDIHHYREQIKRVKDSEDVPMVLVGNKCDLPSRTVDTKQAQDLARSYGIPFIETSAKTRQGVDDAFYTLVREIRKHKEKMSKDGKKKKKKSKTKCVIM
- assay.name: Inhibition of KRas G12C in NCI-H358 cells measured by phosphorylated ERK (Phospho-ERK)
- measurement.setup: 3 hours, 4 parameter fit, read-out: IC50 (pERK(Thr202/Tyr204) signal normalized with GAPDH)
pIC50: −log10 of the molar value.
# pIC50 per record follows

Recorded pIC50, per entry:
>>> print(df.to_string())
                                   compound        reading
0  C=C(F)C(=O)N1CCN(c2nc(OC[C@@H]3CC(F)(F)CN3)nc3c2CCN(c2cccc4ccc(F)c(Cl)c24)C3)C[C@@H]1CC#N  6.00 to 10.00
1  C=C(F)C(=O)N1CCN(c2nc(OCC34CCCN3CCC4)nc3c2CCN(c2cccc(Cl)c2C(F)(F)F)C3)C[C@@H]1CC#N  6.00 to 10.00
2  C=C(F)C(=O)N1CCN(c2nc(OC[C@@H]3C[C@@H](OC)CN3C)nc3c2CCN(c2cccc4ccc(F)c(Cl)c24)C3)C[C@@H]1CC#N  6.00 to 10.00
3  C=C(F)C(=O)N1CCN(c2nc(OCC3CCOC3)nc3c2CCN(c2cccc4ccc(F)c(Cl)c24)C3)C[C@@H]1CC#N (stereo partly drawn)   5.00 to 6.00
4  C=C(F)C(=O)N1CCN(c2nc(OCC(C)N3CCOCC3)nc3c2CCN(c2cccc4ccc(F)c(Cl)c24)C3)C[C@@H]1CC#N (stereo partly drawn)  6.00 to 10.00

The reported value for "C=C(F)C(=O)N1CCN(c2nc(OC[C@@H]3CCCN3C)nc3c2CCN(c2cccc4c2CCC4)C3)C[C@@H]1CC#N" in terms of pIC50 is 6.00 to 10.00
